List of Pre-emergence activity against AVEFA values.
system: Avena fatua (AVEFA); assay: Herbicidal pre-emergence action; format: in vivo; conditions: 1280 g/ha, graded after ca. 3 weeks

[
  {
    "compound": "CC[C@@H](C)[C@@H](NC(=O)CC1CCC(=O)N1Cc1cccc(F)c1F)C(=O)O (single isomer, unassigned)",
    "Pre-emergence activity against AVEFA [%]": 100
  },
  {
    "compound": "O=C(CC1CCC(=O)N1Cc1cccc(F)c1F)OCC1CC1 (racemic)",
    "Pre-emergence activity against AVEFA [%]": 100
  },
  {
    "compound": "CC(C)(C)COC(=O)CC1CCC(=O)N1Cc1cccc(F)c1F (racemic)",
    "Pre-emergence activity against AVEFA [%]": 100
  },
  {
    "compound": "O=C(CC1CCC(=O)N1Cc1cccc(F)c1F)NS(=O)(=O)C(F)(F)F (racemic)",
    "Pre-emergence activity against AVEFA [%]": 90
  },
  {
    "compound": "COC(=O)C1(NC(=O)CC2CCC(=O)N2Cc2cccc(F)c2F)CC1 (racemic)",
    "Pre-emergence activity against AVEFA [%]": 90
  },
  {
    "compound": "O=C(CC1CCC(=O)N1Cc1cccc(F)c1F)NCc1ccccc1 (racemic)",
    "Pre-emergence activity against AVEFA [%]": 80
  },
  {
    "compound": "O=C(CC1CCC(=O)N1Cc1cccc(F)c1F)OCCOc1ccc(Cl)cc1 (racemic)",
    "Pre-emergence activity against AVEFA [%]": 100
  },
  {
    "compound": "C=CCOC(=O)CC1CCC(=O)N1Cc1cccc(F)c1F (racemic)",
    "Pre-emergence activity against AVEFA [%]": 100
  },
  {
    "compound": "CC1(C)CCC(=O)C(C(=O)CC2CCC(=O)N2Cc2cccc(F)c2F)C1=O (racemic)",
    "Pre-emergence activity against AVEFA [%]": 90
  },
  {
    "compound": "CS(=O)(=O)CCOC(=O)CC1CCC(=O)N1Cc1cccc(F)c1F (racemic)",
    "Pre-emergence activity against AVEFA [%]": 100
  },
  {
    "compound": "O=C(CC1CCC(=O)N1Cc1cccc(F)c1F)N1CCCC1 (racemic)",
    "Pre-emergence activity against AVEFA [%]": 90
  },
  {
    "compound": "CN(C)NC(=O)CC1CCC(=O)N1Cc1cccc(F)c1F (racemic)",
    "Pre-emergence activity against AVEFA [%]": 100
  },
  {
    "compound": "CS(=O)(=O)NC(=O)CC1CCC(=O)N1Cc1cccc(F)c1F (racemic)",
    "Pre-emergence activity against AVEFA [%]": 90
  },
  {
    "compound": "COc1ccc(OCCOC(=O)CC2CCC(=O)N2Cc2cccc(F)c2F)cc1 (racemic)",
    "Pre-emergence activity against AVEFA [%]": 100
  },
  {
    "compound": "Cc1ccc(OCCOC(=O)CC2CCC(=O)N2Cc2cccc(F)c2F)cc1 (stereo not drawn)",
    "Pre-emergence activity against AVEFA [%]": 100
  },
  {
    "compound": "O=C(CC1CCC(=O)N1Cc1cccc(F)c1F)NC(Cc1ccccc1)C(=O)O (mixture of isomers)",
    "Pre-emergence activity against AVEFA [%]": 90
  },
  {
    "compound": "C=CCNC(=O)CC1CCC(=O)N1Cc1cccc(F)c1F (racemic)",
    "Pre-emergence activity against AVEFA [%]": 80
  },
  {
    "compound": "O=C(O)CC1CCC(=O)N1Cc1cccc(F)c1F (stereo not drawn) [Example I-003]",
    "Pre-emergence activity against AVEFA [%]": 90
  }
]
